// RP-LC retention time lookup, one value per entry
- Test method notes: gradient 5% acetonitrile 3 min, to 50% in 2 min, to 85% in 15 min, held 3 min, 100 µL/min
- Test conditions: column: Zorbax Extend-C18 2.1 x 50 mm; eluents: water / acetonitrile, 0.1% formic acid
Endpoint: RP-LC retention time (s)

| Molecule | Endpoint | Observed result |
| --- | --- | --- |
| Cc1nc(-c2ccncc2)nc2c1CCC(=O)N2CCCN(C)C | RP-LC retention time | 549 |
| O=C(NCc1ccco1)C1CCN(c2nccnc2Sc2ccccc2)CC1 | RP-LC retention time | 883 |
| CCOC(=O)c1c(C)c(C(=O)OCC)n(C)c1C | RP-LC retention time | 1080 |
| O=C(NCCc1ccc(Cl)cc1)C(=O)Nc1ccc(F)cc1F | RP-LC retention time | 971 |
| CCCc1ccc(S(=O)(=O)Nc2ccc(N3CCCN(C)CC3)cc2C(=O)O)cc1 | RP-LC retention time | 676 |
| COc1cccc(-c2nc(Cn3ccn4nc(-c5ccc(F)cc5)cc4c3=O)c(C)o2)c1OC | RP-LC retention time | 1080 |
| CCCC(=O)N1CCc2c([nH]c3ccccc23)C1c1cccc(OCC)c1 (stereo not given) | RP-LC retention time | 1150 |
| Cn1c(N2CCN(C(=O)c3ccc4c(c3)OCO4)CC2)cc(=O)n(C)c1=O | RP-LC retention time | 637 |
| COc1ccc(C2CNC(=O)C2)cc1OC1CCCC1 (stereo not given) | RP-LC retention time | 794 |
| O=C(Cn1nc2c3cc(-c4ccc(Cl)cc4)nn3ccn2c1=O)N1CCCCC1 | RP-LC retention time | 924 |

Reference source for all entries: the METLIN SMRT retention time set (Domingo-Almenara et al. 2019)
